measured-target: SHP2-C SH2
procedure-text: SH2 binding enrichment of the phosphorylated peptide, bacterial display (enrichment ratio); higher = better substrate or ligand; peptides without Tyr show the background
We use 0.6 as the dividing line for SH2 binding enrichment: on or above the line is Satisfied, below is Not satisfied.

1. YIRRDYEACKA [BBS4_Y48_K46R] | Satisfied
2. TVVGLYQKSSL [MYH7_Y609] | Satisfied
3. QRALLYEDTLY [UNC13D_Y56_A59T] | Not satisfied
4. AALRLYHVSDS [VIL1_Y256_K254R] | Not satisfied
5. SDQPDYDSVAS [GIT2_Y392_N387S] | Satisfied
6. EIPTQYEAMAS [GFAP_Y242_R239P] | Satisfied
7. IVVVPYEPPEV [TP53_Y220_S215I] | Satisfied
8. VFLGAYDCFLP [SLC22A5_Y486_R488C_YF] | Satisfied
9. EKDSNYCLCRT [ASIC2_Y357] | Satisfied
10. EILLSDLRTGY [TGM1_Y365_Y365D] | Satisfied
11. IVWDSYTTNKV [GNB3_Y85] | Satisfied

----------
measured-target: Grb2 SH2 (UniProt P62993)
Sequence (P62993 whole entry, looked up): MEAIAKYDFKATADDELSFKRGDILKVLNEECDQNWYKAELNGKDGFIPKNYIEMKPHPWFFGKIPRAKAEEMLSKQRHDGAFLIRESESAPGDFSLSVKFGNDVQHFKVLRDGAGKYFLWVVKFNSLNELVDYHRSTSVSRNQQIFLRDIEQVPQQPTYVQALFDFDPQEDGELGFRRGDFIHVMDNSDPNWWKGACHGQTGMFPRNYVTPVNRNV
procedure-text: SH2 binding enrichment of the phosphorylated peptide, bacterial display (enrichment ratio); higher = better substrate or ligand; peptides without Tyr show the background
assay-endpoint: SH2 binding enrichment

1. LHSEAYLKYNE [PBRM1_Y1610_I1614N] | 0.955
2. IKKFKYRIEEH [GJA1_Y137_G138R] | 0.847
3. VTDGKYAFKPK [GTF2E2_Y137_I133T] | 0.783
4. LTERGYSFTTK [ACTG1_Y198_T203K] | 0.679
5. KPEKTYGLRNE [CEP43_Y267_K271N] | 0.594
6. EFISEHCGEII [EZH2_Y641_Y641H] | 0.831
7. EEQKKYFNAVK [SCN5A_Y1494_M1498V_YF] | 0.868

----------
measured-target: FGFR1 (UniProt P11362)
Sequence (P11362 whole entry, looked up): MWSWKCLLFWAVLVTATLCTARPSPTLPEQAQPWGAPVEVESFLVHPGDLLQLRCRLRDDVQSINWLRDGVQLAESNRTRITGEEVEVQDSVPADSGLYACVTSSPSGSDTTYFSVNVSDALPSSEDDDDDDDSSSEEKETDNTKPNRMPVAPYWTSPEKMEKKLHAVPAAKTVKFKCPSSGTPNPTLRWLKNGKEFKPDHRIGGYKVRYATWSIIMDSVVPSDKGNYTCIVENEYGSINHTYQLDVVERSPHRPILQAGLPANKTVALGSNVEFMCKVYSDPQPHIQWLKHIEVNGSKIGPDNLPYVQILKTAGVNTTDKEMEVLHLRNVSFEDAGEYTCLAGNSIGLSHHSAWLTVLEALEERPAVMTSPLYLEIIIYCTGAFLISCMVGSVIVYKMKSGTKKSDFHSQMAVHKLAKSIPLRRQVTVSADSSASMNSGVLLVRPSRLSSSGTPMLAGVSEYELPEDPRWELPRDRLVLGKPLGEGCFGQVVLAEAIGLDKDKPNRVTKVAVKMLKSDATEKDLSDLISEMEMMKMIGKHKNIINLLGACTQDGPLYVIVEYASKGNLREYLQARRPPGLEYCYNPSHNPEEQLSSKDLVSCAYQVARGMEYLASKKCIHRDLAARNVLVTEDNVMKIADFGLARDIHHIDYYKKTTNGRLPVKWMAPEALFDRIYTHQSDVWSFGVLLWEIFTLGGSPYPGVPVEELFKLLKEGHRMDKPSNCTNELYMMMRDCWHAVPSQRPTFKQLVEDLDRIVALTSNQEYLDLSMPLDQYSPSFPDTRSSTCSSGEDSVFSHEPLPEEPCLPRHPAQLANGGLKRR
procedure-text: phosphorylation enrichment, bacterial display (enrichment ratio); higher = better substrate or ligand; peptides without Tyr show the background
assay-endpoint: phosphorylation enrichment

1. LDFNEYVRDLN [HPRT1_Y198_F199V_YF] | 0.532
2. SLGKGYSVGGC [MC4R_Y35_D37V] | 0.456
3. ISSLRYELLEE [TRPC6_Y896] | 0.52
4. SIKDKYVTALF [KCNH2_Y611_YF] | 0.525
5. HIKHNYECLVF [XRCC5_Y416_YF] | 0.796
6. AKKVFYVNETR [SHH_Y253_I255N] | 0.42
7. DVSKEYGHLLP [HRC_Y99] | 0.551
8. KVIDMYLMGCF [GABRB2_Y308_A304V] | 0.619
9. GVKLTYGDAQS [SLC28A1_Y404_N409S] | 0.429
10. DVCKNYAKAKD [ALB_Y343_E345K] | 0.409
11. AGADGYGYLAP [FOXL2_Y186] | 0.37
12. LGSNGCKKLLK [SEPSECS_Y334_Y334C] | 0.661
13. NIFSFYLSRDP [CTSD_Y232] | 0.348
14. RHFTTYDTNGR [CLCA1_Y665_Y661H] | 0.808
15. CTTIHYYYMCN [TP53_Y234_N235Y] | 2.74
16. PNATLYKMTSI [SERPINA7_Y40_S43T] | 0.86
17. KQLYAYKMLMA [TMC2_Y209] | 0.515
18. TLRETYGEMAD [ALB_Y108] | 0.519
19. KPMDTYYDSTR [DYNC2H1_Y2230] | 0.998
20. PINEPYGDDMD [JUP_Y693] | 1.15
21. IDDNEYAFLKA [HNF4A_Y286_YF] | 1.44
22. SIKHKYVTALF [KCNH2_Y611_D609H_YF] | 0.354
23. MKKMHYVDPDH [ST3GAL5_Y99] | 0.338
24. ANQDDYISFRH [IMP4_Y226] | 1.07
25. KILGRYFETGS [PAX2_Y72_YF] | 0.459
26. TFYQMYDKGLV [IARS2_Y231] | 0.986
27. LSSNLYYRWLT [CNGA3_Y168_P163L] | 21.5
28. ETKENYGKTLK [CHL1_Y291] | 0.325
29. SFNNKYGMVAQ [APOB_Y276_K273N_YF] | 0.4
